Data credit: patent US9238632B2

Provide the recorded inhibition at 10 µM for the entries that follow.
Biological target: 5-HT2A receptor (Rattus norvegicus, UniProt P14842)
Construct: The supernatant is discarded and the precipitate (membrane receptor) is stocked; from tissue; host or cells: SD rat cerebral cortex membranes
Sequence (P14842 whole entry): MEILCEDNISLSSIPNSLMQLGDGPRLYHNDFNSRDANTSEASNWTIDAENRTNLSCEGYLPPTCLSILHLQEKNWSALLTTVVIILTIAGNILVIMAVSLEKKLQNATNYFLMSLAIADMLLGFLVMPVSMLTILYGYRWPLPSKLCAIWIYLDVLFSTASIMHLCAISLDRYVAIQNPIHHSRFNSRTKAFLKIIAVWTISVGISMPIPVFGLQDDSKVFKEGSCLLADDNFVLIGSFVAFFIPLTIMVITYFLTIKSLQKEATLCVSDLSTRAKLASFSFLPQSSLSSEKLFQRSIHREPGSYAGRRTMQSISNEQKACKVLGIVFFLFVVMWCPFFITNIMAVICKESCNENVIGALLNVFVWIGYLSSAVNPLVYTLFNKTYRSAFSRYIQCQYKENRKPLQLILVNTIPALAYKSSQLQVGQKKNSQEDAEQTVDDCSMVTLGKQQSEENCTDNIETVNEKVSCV
Test: In vitro competitive binding test to 5-HT2A receptor ([3H]-Ketanserin, rat cerebral cortex membranes)
Settings: 10 μmol/L compound; hydrochloride salts; rat cerebral cortex membrane; unit (I %); read-out: 5-HT2A affinity [3H]-Ketanserin (inhibition rate of radioligand binding)
Procedure: Animals: clean grade SD rats, female and male, 250-300 g, purchased from Nanjing QingLongshan animal breeding center. Radioligand: [^3H]-8-OH-DPAT, [^3H]-Ketanserin, purchased from PerkinElmer company; 5-HT and Methysergide, purchased from Sigma company. […] Above tubes are put in 37° C. water bath immediately after finishing adding radioligand into each of them and then incubated for 25 min. […] Radioactivity is determined using liquid scintillation counter. […]
Numbers only, in %.

Answered cases to consult:
molecule="CN(CCCN1CCN(c2cccc(Cl)c2)CC1)c1cccc(C#N)c1 [III-10]" reported=145
molecule="CCN(CCCN1CCN(c2ccccc2OC)CC1)c1cccc(C#N)c1 [III-14]" reported=135
molecule="CN(CCCN1CCN(c2cccc(Cl)c2Cl)CC1)c1cccc(C#N)c1 [III-13]" reported=149

Turning to the following molecule.
### Prompt Give reported inhibition at 10 µM value for Cc1cccc(N2CCN(CCN(C)c3cccc(C#N)c3)CC2)c1C [III-5]
### Response 134
